# Tested on: CCRIS mutagenicity, Ames/micronucleus/aberration tests
# method-description: CCRIS mutagenicity studies
# particulars: Test System: AMES SALMONELLA TYPHIMURIUM; Strain/Indicator: TA98; Metabolic Activation: NONE; Method: PREINCUBATION
Activity calls are given as the source filed them. The rule behind the calls is not given here.
In this exercise, the only acceptable responses are yes (1) for active, no (0) for inactive

molecule: O=[N+]([O-])c1c2ccccc2cc2ccccc12
label-class: yes (1)

Given `O=C/C(Br)=C/c1ccccc1` , state the outcome it received in this test.
yes (1)

Hi, sorry to bother you, what did the test record for `Cc1ccco1` ?
no (0)

What is the recorded call for this molecule in the test? `c1ccncc1`
no (0)

Dear colleague, could you share the recorded outcome for `COC(=O)CCC(=O)OC` when you have a moment?
no (0)

Look up the recorded call for `CC(=O)OC(C)(C)C` in this test.
no (0)
